Test system: ACHN renal
Assay: NCI tumour cell line growth inhibition, 48 h
outcome-measure: TGI

C=C1C(=O)O[C@@H]2[C@H]1C[C@H](I)[C@@]1(C)CC[C@H](O1)[C@](C)(I)CCCC(C)[C@@H]2O (stereo not given in full)	3.71 µM
C=CC1(O)CCCC=C1COCc1ccccc1 (stereo not given)	> 100 µM
CC1=NNC(=O)[C@H]2[C@H]1CCC1[C@@H]2CC[C@]2(C)[C@@H](O)CC[C@@H]12 (stereo not given in full)	> 100 µM
CCOC(=O)COc1cccc2occc(=O)c12	> 100 µM

Turning now to a further record.
Q: Quick one: TGI of COc1cc2c(cc1OC)C(SC)C(=O)N(Cc1cccc(OC)c1OC)CC2 (stereo not given) ?
Ans: > 81.6 µM

* * *

Tested on: BT-549 breast
Assay: NCI tumour cell line growth inhibition, 48 h; in the data active means GI50 below about 0.43 µM; inactive means the rest
Select the matching outcome among label 1 = active, label 0 = inactive

Please review the entries below; each comes with its answer.
O=C(/C=C/c1cccc(Oc2ccc(Cl)cc2)c1)c1ccccc1	label 0
CC/C(=C(/c1ccc(/C=C/C(=O)O)cc1)c1ccc2[nH]ncc2c1)c1ccc(F)cc1Cl	label 0
CCOc1cc(/C=C/C(=O)CC(=O)/C=C/c2ccc(OC(=O)CNCCN(CC)CC)c(OCC)c2)ccc1OC(=O)CNCCN(CC)CC	label 0
Cc1cn2c(/C=C3/C(=O)Nc4ccc(C(=O)O)cc43)c(C)nc2s1	label 0
CC1(C)N=C(N)N=C(N)N1c1ccc(OCCCCNC(=O)Nc2cccc(S(=O)(=O)F)c2)c(Cl)c1	label 0

Q: Would you mind telling me which call this test gave CN(C)c1ccc2c(c1)OC(N)=C(C#N)C2c1ccc2c(c1)CCCN2C (centres undefined) ?
Ans: label 0

Q: Would you mind telling me which call this test gave CCOC(=O)C1=C(C)N(Cc2ccc(Cl)cc2Cl)[C@]2(C#N)C(O)=C(Cl)C(Cl)=C(O)[C@]12C#N ?
Ans: label 0

Q: Would you mind telling me which call this test gave O=C1c2ccccc2-c2c1c1ccc([N+](=O)[O-])cc1c(=O)n2CCCCl ?
Ans: label 0

Q: Would you mind telling me which call this test gave CN(c1ccc(NC(=O)NCCN2CCOCC2)cc1)c1ccnc(Nc2ccc(CS(C)(=O)=O)cc2)n1 ?
Ans: label 0

* * *

Tested on: UO-31 renal
Experiment: NCI tumour cell line growth inhibition, 48 h
TGI values by entry
Output spec: scalar in µM, unitless text.

Take a look at these entries with their results.
O=C1c2ccccc2/C=C\C(c2ccccc2)=N/N1c1ccccc1Cl	98.8
O=C(/C=C/c1cccc(Oc2ccc(Cl)cc2)c1)c1ccccc1	34.1
O=c1c2ccccc2n2cnc3ccc(NCCNCCO)c1c32	11.6

Q: Quick one: TGI of O=C(Nc1cccc(-n2cc(-c3ccncc3)c(-c3ccc(O)c(Cl)c3)n2)c1)Nc1ccc(Cl)c(Cl)c1 ?
Ans: 8.34

* * *

TGI values by entry
System: DMS 273 small cell lung
Assay: NCI tumour cell line growth inhibition, 48 h

O=C(NN1C(=O)C(Cl)C1c1c(O)ccc2ccccc12)c1ccccc1O (stereo unspecified)	> 100 µM
CC1CCN(c2cc(-c3cc4ccccc4o3)oc(=O)c2C#N)CC1	> 100 µM
CC(=O)c1c(O)c2c([nH]c1=O)CCCC2	70.5 µM
CSc1nc(C)cc(=O)n1C1OC(COC(C)=O)C(OC(C)=O)C(OC(C)=O)C1OC(C)=O (stereo unspecified)	> 100 µM
Nc1ncnc2c1ncn2CCOC(c1ccccc1)P(=O)(O)O (stereo unspecified)	> 100 µM

Turning now to a further record.
Q: Value wanted: TGI (DMS 273 small cell lung) of entry O=C(CCC(=O)C1Cc2ccccc2C1=O)Nc1cccc(C(F)(F)F)c1 (stereo unspecified)
Ans: > 100 µM

* * *

System: SK-MEL-2 melanoma
Assay: NCI tumour cell line growth inhibition, 48 h
outcome-measure: GI50

O=S(=O)(NCCCNc1nccc(-c2c(-c3cccc(F)c3)nc3occn23)n1)c1cccc2ccccc12	6.99 µM
CCc1ccc(C2=NN(c3ccc(S(C)(=O)=O)cc3)C(=O)CC2)cc1	1.24 µM
Cc1ccc(C(=O)N2C/C(=C/c3ccccc3)C(=O)/C(=C/c3ccccc3)C2)cc1	> 62.8 µM

Q: Quick one: GI50 of CCN(CC)Cc1cc(Nc2cc(C(F)(F)F)c(C#N)c3nc4ccccc4n23)ccc1O ?
Ans: 1.35 µM

Q: Quick one: GI50 of N#Cc1cccc(C2C3=C(COC3=O)N(CCO)c3cc4c(cc32)CCC4)c1 (centres undefined) ?
Ans: 0.319 µM

Q: Quick one: GI50 of CC1=NN(c2nc(N)nc(/C=C\c3ccccc3)n2)C(C)(C)C1 ?
Ans: 11.2 µM

Q: Quick one: GI50 of CN(C)CCS(=O)(=O)Nc1cc(-c2ccc3ncnc(Nc4ccc(F)c(Cl)c4)c3c2)cnc1Cl ?
Ans: 0.715 µM

Q: Quick one: GI50 of CCN(CC)CCS(=O)(=O)CCNc1ccnc2cc(Cl)ccc12 ?
Ans: 2.35 µM

Q: Quick one: GI50 of CCOC(=O)C1=C(C)N(Cc2ccc(Cl)cc2Cl)[C@]2(C#N)C(O)=C(Cl)C(Cl)=C(O)[C@]12C#N ?
Ans: > 100 µM

* * *

System: IGROV1 ovarian
Test: NCI tumour cell line growth inhibition, 48 h
outcome-measure: TGI (µM)
Output spec: scalar in µM, unitless text.

O=[N+]([O-])c1ccc(/C=C\c2ccc3c(c2)OCO3)c([N+](=O)[O-])c1	24.7

Q: Quick one: TGI of CC(=O)O[C@H]1C[C@H]2[C@@H]([C@H](OC(C)=O)C[C@@H]3CC4(CC[C@@]32C)OOC2(CCCCC2)OO4)[C@@H]2CC[C@H]([C@H](C)CCC(=O)O)[C@@]12C ?
Ans: 3.9

* * *

The following molecules each carry a recorded GI50 for U251 CNS.

CCOc1cc(/C=C/C(=O)CC(=O)/C=C/c2ccc(OC(=O)CNCCN(CC)CC)c(OCC)c2)ccc1OC(=O)CNCCN(CC)CC	1270 nM
O=S(=O)(NCCCNc1nccc(-c2c(-c3cccc(F)c3)nc3occn23)n1)c1cccc2ccccc12	8890 nM
Nc1c(C(=O)Nc2ccccn2)sc2nc3c(cc12)CCCCCC3	970 nM

Turning now to a further record.
Q: Value wanted: GI50 (U251 CNS) of entry CN(C)CCS(=O)(=O)Nc1cc(-c2ccc3ncnc(Nc4ccc(F)c(Cl)c4)c3c2)cnc1Cl
Ans: 850 nM

* * *

Tested on: LOX IMVI melanoma
Experiment: NCI tumour cell line growth inhibition, 48 h; in the data active = GI50 below about 0.43 µM; inactive = the rest
Select the matching outcome among yes (active), no (inactive)

Q: Would you mind telling me which call this test gave O=C(/C=C/c1cccc(Oc2ccc(Cl)cc2)c1)c1ccccc1 ?
Ans: no

Q: Would you mind telling me which call this test gave CCN(CC)CCCNc1c2ccc(Cl)cc2nc2ccc(OC)cc12 ?
Ans: yes

Q: Would you mind telling me which call this test gave c1ccc2c(c1)[O][Sn][O]2 ?
Ans: no

Q: Would you mind telling me which call this test gave Cc1ccc(C(=O)N2C/C(=C/c3ccccc3)C(=O)/C(=C/c3ccccc3)C2)cc1 ?
Ans: no

Q: Would you mind telling me which call this test gave Cc1cn2c(/C=C3/C(=O)Nc4ccc(C(=O)O)cc43)c(C)nc2s1 ?
Ans: no

Q: Would you mind telling me which call this test gave O=C(CN(/C=C/C(=O)C(F)(F)F)c1ccccc1)c1ccc(F)cc1 ?
Ans: no

* * *

System: UO-31 renal
Assay: NCI tumour cell line growth inhibition, 48 h
TGI values by entry
Output spec: scalar in µM, unitless text.

CC1=NN(c2nc(N)nc(/C=C\c3ccccc3)n2)C(C)(C)C1	28.5

Turning now to a further record.
Q: Value wanted: TGI (UO-31 renal) of entry COc1cc2c(cc1OC)C(SC)C(=O)N(Cc1cccc(OC)c1OC)CC2 (stereo not drawn)
Ans: 70

* * *

System: IGROV1 ovarian
Test: NCI tumour cell line growth inhibition, 48 h
TGI values by entry

O=S(=O)(/N=C(\NO)Nc1ccc(Cl)cc1)c1cc(S(=O)(=O)c2ccccc2)cs1	44.9 µM

Q: Value wanted: TGI (IGROV1 ovarian) of entry O=C(Nc1ccc(Cl)c(C(F)(F)F)c1)C(=O)c1c(O)c2ccccc2oc1=O
Ans: > 100 µM

Q: Value wanted: TGI (IGROV1 ovarian) of entry CC1(C)OC2OC(COC(=O)C(c3ccccc3)c3ccccc3)C3OC(C)(C)OC3C2O1 (configuration not stated)
Ans: > 100 µM

Q: Value wanted: TGI (IGROV1 ovarian) of entry O=CC(O)C(O)C(OC1OC(CO)C(O)C(O)C1O)C(O)CO (configuration not stated) (tested in a mixture with another compound)
Ans: 71.9 µM

* * *

Tested on: NCI-H522 lung
Experiment: NCI tumour cell line growth inhibition, 48 h
outcome-measure: TGI (µM)
Output spec: scalar in µM, unitless text.

Take a look at these entries with their results.
CCOC(=O)[C@@H]1C[C@@H]1c1ccc(O)c(O)c1	26.5
CCN(CC)CCS(=O)(=O)CCNc1ccnc2cc(Cl)ccc12	2.11
O=C1C2C(C(=O)N1CC[Se][Se]CCN1C(=O)C3C(C1=O)[C@H]1C=C[C@@H]3C1)[C@H]1C=C[C@@H]2C1 (stereo not given in full)	4.44

Turning now to a further record.
Q: Quick one: TGI of FC(F)(F)c1cnc(N/N=C(/c2ccccc2)c2ccccn2)c(Cl)c1 ?
Ans: 4.74
